# Tested on: Plasmodium berghei
# PROCEDURE DETAILS: Screen against P. berghei liver stage (PbLuc), transformed with Luciferase, at 10uM
# Type: functional, HepG2
# CONDITION PARAMETERS: tested at 10 uM
Screen size: about 69,000 compounds; about 8,600 (12%) showed an effect of 50% or more. The sample holds strong results, similar compounds and a random draw of the others, so the mix is not that of the screen.
Labelling: INHIBITION reported below 20% becomes Y; at or above becomes N.

Past entries and their recorded results:
1. O=C(CSc1nnc[nH]1)NCc1cccs1 ... Y
2. Cc1cc(C)n(CC2CCN(CC(O)COc3ccccc3)CC2)n1 (centres undefined) ... N
3. CC(C#N)CSc1ccccc1NCC(=O)NC(C1CC1)C1CC1 (centres undefined) ... N
4. O=C(c1ccc2c(c1)CCO2)N1CCN(c2cnccn2)CC1 ... Y
5. Cc1ccc(C(=O)NCC2(O)CCOCC2)cc1F ... N

Please indicate whether the reported INHIBITION of CC1(C(=O)NCCc2ccc(F)cc2)CCOCC1 is strictly below 20%. N

Please indicate whether the reported INHIBITION of Cc1ccn(-c2ccnc(N3CCSCC3)n2)n1 is strictly below 20%. N

Please indicate whether the reported INHIBITION of Cc1ccnn1CCNC(=O)C1CCN(S(=O)(=O)c2ccc(F)cc2)C1 (centres undefined) is strictly below 20%. N

* * *

# Test system: Plasmodium berghei
# PROCEDURE DETAILS: Screen against P. berghei liver stage (PbLuc), transformed with Luciferase, at 10uM
# Type: functional, HepG2
# CONDITION PARAMETERS: tested at 10 uM
Out of some 69,000 compounds screened, about 8,600 (12%) showed an effect of 50% or more. This excerpt belongs to a sample that is enriched for strong results.
PROPERTY MEASURED: INHIBITION (%)
Numbers only, in %.

Past entries and their recorded results:
1) Cc1ccnc(C(NC(=O)c2ccc(O)nc2C)C2CC2)n1 (stereo not drawn) ... 2.65
2) Cc1cc(N2CCC(N(C)C(=O)c3ccccc3F)CC2)nc(C)n1 ... 56.1

# map each molecule to its INHIBITION
1. O=C(c1ccc2[nH]cnc2c1)N1CCCC1Cn1cccn1 (stereo not drawn)
2. CC(CNC(=O)Nc1ccc(C#N)cc1)N1CCc2ccccc21 (stereo not drawn)
3. CCc1nc(C)ncc1C(=O)N1CC(=O)N(C)c2ccccc21
4. COCCCN(Cc1cnc(N2CCCC2)nc1)C1CCN(C)CC1

[-0.514, 40.1, 28.7, 10.3]

# map each molecule to its INHIBITION
1. CN(C(=O)c1ccc(C#N)cc1)C1CCN(c2ccccn2)CC1
2. Cn1nc(CN2CCCCC2)c2c1CN(C(=O)c1cccc(Cl)c1)C2
3. COc1ccccc1C(=O)N(C)C1CCN(c2ccccn2)CC1
4. Cc1cc(N2CCC(N(C)C(=O)c3ccc(C#N)cc3)CC2)nc(C)n1
5. Cc1cc(N2CCC(N(C)C(=O)c3ccccc3)CC2)nc(C)n1

1: -39.5; 2: -41.8; 3: 19.5; 4: 81.1; 5: 2.3

# map each molecule to its INHIBITION
1. COCCN1CCO[C@@H]2CN(C(=O)Cc3cccc(F)c3)CC[C@@H]2C1
2. c1cc(-c2nnn3c2COC(CNCC2CCOCC2)C3)ccn1 (stereo not drawn)
3. O=C(NCC1CCOC1)Nc1ccc(Oc2ccc(F)cc2)nc1 (stereo not drawn)

1: 10.5; 2: 28.2; 3: 3.67

# map each molecule to its INHIBITION
1. CS(=O)(=O)c1cnc(CC2CC2)nc1C1CCCNC1 (stereo not drawn)
2. Cc1nnn2c1COC(CNCc1ccncc1)C2 (stereo not drawn)
3. CN(C)CCOc1ccc(N(C)S(=O)(=O)c2cnn(C)c2)cc1
4. CN1CCN(C[C@@H]2CN(C3Cc4ccccc4C3)C[C@@H]2CO)CC1

1: 41.7; 2: 39.3; 3: 32.3; 4: 8.51

* * *

# Test system: Plasmodium berghei
# PROCEDURE DETAILS: Screen against P. berghei liver stage (PbLuc), transformed with Luciferase, at 10uM
# Format: functional, HepG2
# CONDITION PARAMETERS: tested at 10 uM
The whole screen tested about 69,000 compounds, of which about 8,600 (12%) showed an effect of 50% or more. Shown is part of a subset that was picked to be rich in strong results.
Exercise: for every item that follows, state its recorded INHIBITION.
Answers are plain numbers, in %.

1) Cc1ccccc1CNC(=O)N1CCC(n2cncn2)CC1 ... 4.52
2) CCS(=O)(=O)Cc1nnnn1-c1ccccc1 ... 61.1
3) CCOc1ncccc1CNC(=O)N1CCC(n2cncn2)CC1 ... 11.4
4) COc1ccccc1CCNC(=O)N1CCC(n2cncn2)CC1 ... 16.9
5) CC(Cc1ccco1)NC(=O)Nc1ccc(N2CCCC2)nc1 (configuration not stated) ... 21.425
6) CCCNC(=O)c1nn(CC)cc1NC(=O)C(C)n1ncc(Cl)c1C (configuration not stated) ... 8.49
7) CCOCc1ncn2c1CN(S(=O)(=O)c1ccc(C)cc1)CC2 ... -51.9
8) Cn1cnc2c1C(COCc1ccccc1)N(Cc1ccncc1)CC2 (configuration not stated) ... 15.9
9) Cc1c(NCc2cccnc2)cccc1C(=O)N1CCC(N(C)C)C1 (configuration not stated) ... 24.4
10) COc1cc(Cl)ccc1CNC(=O)N1CCC(n2cncn2)CC1 ... 0.411

# map each molecule to its INHIBITION
1. CCc1cnc2c(c1Nc1ccccc1OC)c(=O)n(C)c(=O)n2C
2. CCN(CC)C1CCN(C(=O)NCc2cccc(NC(C)=O)c2)C1 (configuration not stated)

[15.4, -4.15]

* * *

# System: Plasmodium berghei
# PROCEDURE DETAILS: Screen against P. berghei liver stage (PbLuc), transformed with Luciferase, at 10uM
# Type: functional, HepG2
# CONDITION PARAMETERS: tested at 10 uM
The whole screen tested about 69,000 compounds, of which about 8,600 (12%) showed an effect of 50% or more. Only a selection was taken, and strong results are over-represented in it overall.
PROPERTY MEASURED: INHIBITION (%)
Numbers only, in %.

# map each molecule to its INHIBITION
1. N#CCSCCCN1CCN(C(=O)C2CCCC2)CC1
2. O=C1COC2(CCN(c3ncccn3)CC2)CN1c1ccsc1
3. Cc1cc(C(=O)N(CC(F)(F)F)C2CCOCC2)c(C)o1
4. CN(CC(=O)N1CCCCC1Cn1cccn1)C1CC1 (configuration not stated)
5. N#CCSCCCN1CCCC(C(=O)N2CCCCCC2)C1 (configuration not stated)
6. O=C(Nc1ccccc1)N1CCC2(CC(=O)N(c3ccsc3)C2)C1 (configuration not stated)
7. N#CCSCCCN1CCC(C(=O)N2CCCCCC2)CC1

1: 50.7; 2: 26.5; 3: 15; 4: -79.3; 5: 35.5; 6: -12.2; 7: 51.8

* * *

# System: Plasmodium berghei
# PROCEDURE DETAILS: Screen against P. berghei liver stage (PbLuc), transformed with Luciferase, at 10uM
# Assay type: functional, HepG2
# CONDITION PARAMETERS: tested at 10 uM
In all, about 69,000 compounds went through this assay and about 8,600 (12%) showed an effect of 50% or more. What follows is part of a selection rich in strong results, with near analogues and random picks from the rest.
Everything with INHIBITION lower than 40% is 0.0; everything else, including exactly 40%, is 1.0.

Past entries and their recorded results:
1) O=C(Cc1cccs1)N1C[C@@H]2COC[C@]2(COCc2cccnc2)C1 ... 1.0
2) CCC(=O)N1CCC2(COCc3cnc(N4CCOCC4)nc32)C1 (centres undefined) ... 1.0
3) Fc1ccc(CN2CCCN(Cc3cscn3)CC2)cc1 ... 0.0
4) CC(Cn1cccn1)NC(=O)NCc1ccc(OC2CCCC2)nc1 (centres undefined) ... 1.0
5) COCC(=O)N1CCC2(COCc3cnc(N4CCOCC4)nc32)C1 (centres undefined) ... 1.0
6) O=c1[nH]c(-c2ccncc2)ncc1-c1ccnc(NC2CC2)n1 ... 0.0

Could you please find out whether CC(C)NC(=O)N1CCC2(COCc3cnc(N4CCOCC4)nc32)C1 (centres undefined) has INHIBITION that meets 40% or exceeds it? 0.0

Could you please find out whether CCCn1cnnc1CN(C)C(=O)C1CCCN(C2CCN(C)CC2)C1 (centres undefined) has INHIBITION that meets 40% or exceeds it? 0.0

Could you please find out whether CCn1nc(C)c(CNC(=O)C2COc3ccccc3C2)c1C (centres undefined) has INHIBITION that meets 40% or exceeds it? 0.0

* * *

# System: Plasmodium berghei
# PROCEDURE DETAILS: Screen against P. berghei liver stage (PbLuc), transformed with Luciferase, at 10uM
# Type: functional, HepG2
# CONDITION PARAMETERS: tested at 10 uM
Among all 69,000 compounds or so, about 8,600 (12%) showed an effect of 50% or more. This is one part of a sample in which strong results are shown more often than they occur.
PROPERTY MEASURED: INHIBITION

1) CCCN1CCc2nc(SCc3ccc(F)cc3)[nH]c(=O)c2C1 ... 20%
2) Cc1cccc(CN2CCc3onc(Cn4cccc4)c3C2)n1 ... 31.5%
3) CC(=O)N1CCCC1c1nccnc1Nc1ncccn1 (stereo unspecified) ... -107%

# map each compound to its INHIBITION
1. CC(C)c1cccc(N2CCCC3(CCC(=O)N(C4CC4)C3)C2)n1 (stereo unspecified)
2. CCC(O)CN(CC(=O)Nc1cc(C)no1)c1ccccc1 (stereo unspecified)

1: 50.5%; 2: 16.8%
